Source: ChEMBL document CHEMBL5634133

Test system: MCF7
procedure.text: Antiproliferative activity against human MCF7 cells assessed as inhibition of cell viability incubated for 72 hrs by CCK8 assay
Assay type: functional, cell-based
study.conditions: MCF7, 72 h
readout: IC50
Be sure to follow the number with its unit.

Task: Reported IC50, compound O=C1Nc2ccccc2/C1=C1/Nc2ccccc2/C1=N\OCCCC(=O)N1CCN(C(=O)c2ccc(Cc3n[nH]c(=O)c4ccccc34)cc2F)CC1 : ____
Output: 1.6 µM

Task: Reported IC50, compound O=C1Nc2ccc(F)cc2/C1=C1/Nc2ccc(F)cc2/C1=N\OCCCC(=O)N1CCN(C(=O)c2cc(Cc3n[nH]c(=O)c4ccccc34)ccc2F)CC1 : ____
Output: 45.3 µM

Task: Reported IC50, compound O=C1Nc2ccccc2/C1=C1/Nc2ccccc2/C1=N\OCCCNC(=O)c1cc(Cc2n[nH]c(=O)c3ccccc23)ccc1F : ____
Output: 6.89 µM

Task: Reported IC50, compound O=C1Nc2ccc(F)cc2/C1=C1/Nc2ccccc2/C1=N\OCCCC(=O)N1CCN(C(=O)c2cc(Cc3n[nH]c(=O)c4ccccc34)ccc2F)CC1 : ____
Output: 38.7 µM

----------
For each entry below, report its IC50 value.
System: NCM460
procedure.text: Antiproliferative activity against human NCM460 cells assessed as inhibition of cell viability incubated for 72 hrs by CCK8 assay
Assay type: functional, cell-based
study.conditions: NCM460, 72 h

Task: Reported IC50, compound O=C1Nc2ccccc2/C1=C1/Nc2ccccc2/C1=N\OCCCCCCC(=O)N1CCN(C(=O)c2ccc(Cc3n[nH]c(=O)c4ccccc34)cc2F)CC1 : ____
Output: > 60 µM

Task: Reported IC50, compound NC(=O)c1cccc2cn(-c3ccc([C@@H]4CCCN(C(=O)CCCCO/N=C5/C(=C6/C(=O)Nc7ccccc76)Nc6ccccc65)C4)cc3)nc12 : ____
Output: > 60 µM

Task: Reported IC50, compound O=C1Nc2ccccc2/C1=C1/Nc2ccccc2/C1=N\OCCCCCCCNC(=O)c1cc(Cc2n[nH]c(=O)c3ccccc23)ccc1F : ____
Output: > 60 µM

Task: Reported IC50, compound O=C1Nc2ccccc2/C1=C1/Nc2ccccc2/C1=N\OCCCCNC(=O)c1cc(Cc2n[nH]c(=O)c3ccccc23)ccc1F : ____
Output: 8.04 µM

----------
For each entry below, report its pIC50 value.
Test system: A549
procedure.text: Antiproliferative activity against human A549 cells assessed as inhibition of cell viability incubated for 72 hrs by CCK8 assay
Format: functional, cell-based
study.conditions: A549, 72 h
Note on pIC50: it is the negative log10 of concentration, concentration in mol/L.

Task: Reported pIC50, compound O=C1Nc2ccccc2/C1=C1/Nc2ccccc2/C1=N\OCCCCC(=O)N1CCN(C(=O)c2ccc(Cc3n[nH]c(=O)c4ccccc34)cc2F)CC1 : ____
Output: 4.42

Task: Reported pIC50, compound NC(=O)c1cccc2cn(-c3ccc([C@@H]4CCCN(C(=O)c5ccc(CO/N=C6/C(=C7/C(=O)Nc8ccccc87)Nc7ccccc76)cc5)C4)cc3)nc12 : ____
Output: 4.31

Task: Reported pIC50, compound O=C1Nc2ccc(Br)cc2/C1=C1/Nc2ccc(Br)cc2/C1=N\OCCCC(=O)N1CCN(C(=O)c2cc(Cc3n[nH]c(=O)c4ccccc34)ccc2F)CC1 : ____
Output: 4.33

Task: Reported pIC50, compound NC(=O)c1cccc2cn(-c3ccc([C@@H]4CCCNC4)cc3)nc12 : ____
Output: 4.90

Task: Reported pIC50, compound O=C1Nc2ccccc2/C1=C1/Nc2ccccc2/C1=N\OCCCC(=O)N1CCN(C(=O)c2ccc(Cc3n[nH]c(=O)c4ccccc34)cc2F)CC1 : ____
Output: 5.49

Task: Reported pIC50, compound NC(=O)c1cccc2cn(-c3ccc([C@@H]4CCCN(C(=O)CCCCO/N=C5/C(=C6/C(=O)Nc7ccccc76)Nc6ccccc65)C4)cc3)nc12 : ____
Output: 4.32

Task: Reported pIC50, compound O=C1Nc2ccccc2/C1=C1/Nc2ccccc2/C1=N\O : ____
Output: 5.09

Task: Reported pIC50, compound O=C1Nc2ccc(F)cc2/C1=C1/Nc2ccccc2/C1=N\OCCCC(=O)N1CCN(C(=O)c2cc(Cc3n[nH]c(=O)c4ccccc34)ccc2F)CC1 : ____
Output: 4.46

Task: Reported pIC50, compound O=C1Nc2ccc(F)cc2/C1=C1/Nc2ccc(F)cc2/C1=N\OCCCC(=O)N1CCN(C(=O)c2cc(Cc3n[nH]c(=O)c4ccccc34)ccc2F)CC1 : ____
Output: 4.37

Task: Reported pIC50, compound O=C1Nc2ccccc2/C1=C1/Nc2ccccc2/C1=N\OCc1ccc(C(=O)N2CCN(C(=O)c3cc(Cc4n[nH]c(=O)c5ccccc45)ccc3F)CC2)cc1 : ____
Output: 4.37

Task: Reported pIC50, compound O=C1Nc2ccccc2/C1=C1/Nc2ccc(F)cc2/C1=N\OCCCC(=O)N1CCN(C(=O)c2cc(Cc3n[nH]c(=O)c4ccccc34)ccc2F)CC1 : ____
Output: 4.60

Task: Reported pIC50, compound O=C1Nc2ccc(Br)cc2/C1=C1/Nc2ccccc2/C1=N\OCCCC(=O)N1CCN(C(=O)c2cc(Cc3n[nH]c(=O)c4ccccc34)ccc2F)CC1 : ____
Output: 4.56

Task: Reported pIC50, compound O=C(c1cc(Cc2n[nH]c(=O)c3ccccc23)ccc1F)N1CCN(C(=O)C2CC2)CC1 : ____
Output: 4.53

Task: Reported pIC50, compound O=C1Nc2ccccc2/C1=C1/Nc2ccccc2/C1=N\OCCCCNC(=O)c1cc(Cc2n[nH]c(=O)c3ccccc23)ccc1F : ____
Output: 5.36

Task: Reported pIC50, compound O=C1Nc2ccccc2/C1=C1/Nc2ccccc2/C1=N\OCCCNC(=O)c1cc(Cc2n[nH]c(=O)c3ccccc23)ccc1F : ____
Output: 5.09

----------
System: MCF7
procedure.text: Antiproliferative activity against human MCF7 cells assessed as inhibition of cell viability incubated for 72 hrs by CCK8 assay
Assay type: functional, cell-based
study.conditions: MCF7, 72 h
readout: pIC50
Note on pIC50: it is the negative log10 of concentration, concentration in mol/L.

Task: Reported pIC50, compound O=C(c1cc(Cc2n[nH]c(=O)c3ccccc23)ccc1F)N1CCN(C(=O)C2CC2)CC1 [OLAPARIB] : ____
Output: 4.03

Task: Reported pIC50, compound O=C1Nc2ccccc2/C1=C1/Nc2ccccc2/C1=N\O : ____
Output: 5.39

Task: Reported pIC50, compound O=C1Nc2ccccc2/C1=C1/Nc2ccccc2/C1=N\OCc1ccc(C(=O)N2CCN(C(=O)c3cc(Cc4n[nH]c(=O)c5ccccc45)ccc3F)CC2)cc1 : ____
Output: 4.36

Task: Reported pIC50, compound O=C1Nc2ccccc2/C1=C1/Nc2ccc(F)cc2/C1=N\OCCCC(=O)N1CCN(C(=O)c2cc(Cc3n[nH]c(=O)c4ccccc34)ccc2F)CC1 : ____
Output: 4.49

----------
Tested on: HCT-116
procedure.text: Antiproliferative activity against human HCT-116 cells assessed as inhibition of cell viability incubated for 72 hrs in presence of olaparib by CCK8 assay
Assay type: functional, cell-based
study.conditions: HCT-116, 72 h
readout: pIC50
Note on pIC50: it is the negative log10 of concentration, concentration in mol/L.

Task: Reported pIC50, compound O=C1Nc2ccccc2/C1=C1/Nc2ccccc2/C1=N\O : ____
Output: 5.86

----------
For each entry below, report its IC50 value.
Tested on: NCM460
procedure.text: Antiproliferative activity against human NCM460 cells assessed as inhibition of cell viability incubated for 72 hrs by CCK8 assay
Type: functional, cell-based
study.conditions: NCM460, 72 h

Task: Reported IC50, compound O=C1Nc2ccc(Cl)cc2/C1=C1/Nc2ccccc2/C1=N\OCCCC(=O)N1CCN(C(=O)c2cc(Cc3n[nH]c(=O)c4ccccc34)ccc2F)CC1 : ____
Output: > 60 µM

Task: Reported IC50, compound O=C1Nc2ccc(F)cc2/C1=C1/Nc2ccc(F)cc2/C1=N\OCCCC(=O)N1CCN(C(=O)c2cc(Cc3n[nH]c(=O)c4ccccc34)ccc2F)CC1 : ____
Output: > 60 µM

Task: Reported IC50, compound O=C1Nc2ccccc2/C1=C1/Nc2ccccc2/C1=N\O : ____
Output: 13.1 µM

Task: Reported IC50, compound O=C1Nc2ccccc2/C1=C1/Nc2ccccc2/C1=N\OCc1ccc(C(=O)N2CCN(C(=O)c3cc(Cc4n[nH]c(=O)c5ccccc45)ccc3F)CC2)cc1 : ____
Output: > 60 µM

Task: Reported IC50, compound NC(=O)c1cccc2cn(-c3ccc([C@@H]4CCCN(C(=O)CCCCCO/N=C5/C(=C6/C(=O)Nc7ccccc76)Nc6ccccc65)C4)cc3)nc12 : ____
Output: > 60 µM

Task: Reported IC50, compound O=C1Nc2ccccc2/C1=C1/Nc2ccccc2/C1=N\OCCCCCCCC(=O)N1CCN(C(=O)c2ccc(Cc3n[nH]c(=O)c4ccccc34)cc2F)CC1 : ____
Output: > 60 µM

Task: Reported IC50, compound NC(=O)c1cccc2cn(-c3ccc([C@@H]4CCCN(C(=O)CCCCCCO/N=C5/C(=C6/C(=O)Nc7ccccc76)Nc6ccccc65)C4)cc3)nc12 : ____
Output: > 60 µM

Task: Reported IC50, compound O=C1Nc2ccccc2/C1=C1/Nc2ccccc2/C1=N\OCCCCCCNC(=O)c1cc(Cc2n[nH]c(=O)c3ccccc23)ccc1F : ____
Output: > 60 µM

Task: Reported IC50, compound O=C1Nc2ccc(Br)cc2/C1=C1/Nc2ccccc2/C1=N\OCCCC(=O)N1CCN(C(=O)c2cc(Cc3n[nH]c(=O)c4ccccc34)ccc2F)CC1 : ____
Output: > 60 µM

Task: Reported IC50, compound NC(=O)c1cccc2cn(-c3ccc([C@@H]4CCCNC4)cc3)nc12 : ____
Output: 53.7 µM

Task: Reported IC50, compound O=C1Nc2ccccc2/C1=C1/Nc2ccccc2/C1=N\OCCCCCNC(=O)c1cc(Cc2n[nH]c(=O)c3ccccc23)ccc1F : ____
Output: > 60 µM

Task: Reported IC50, compound O=C1Nc2ccccc2/C1=C1/Nc2ccc(F)cc2/C1=N\OCCCC(=O)N1CCN(C(=O)c2cc(Cc3n[nH]c(=O)c4ccccc34)ccc2F)CC1 : ____
Output: > 60 µM

Task: Reported IC50, compound O=C1Nc2ccccc2/C1=C1/Nc2ccccc2/C1=N\OCCCC(=O)N1CCN(C(=O)c2ccc(Cc3n[nH]c(=O)c4ccccc34)cc2F)CC1 : ____
Output: > 60 µM

Task: Reported IC50, compound O=C1Nc2ccc(F)cc2/C1=C1/Nc2ccccc2/C1=N\OCCCC(=O)N1CCN(C(=O)c2cc(Cc3n[nH]c(=O)c4ccccc34)ccc2F)CC1 : ____
Output: > 60 µM

Task: Reported IC50, compound O=C1Nc2ccccc2/C1=C1/Nc2ccccc2/C1=N\OCCCCCC(=O)N1CCN(C(=O)c2ccc(Cc3n[nH]c(=O)c4ccccc34)cc2F)CC1 : ____
Output: > 60 µM

Task: Reported IC50, compound O=C1Nc2ccccc2/C1=C1/Nc2ccccc2/C1=N\OCCCNC(=O)c1cc(Cc2n[nH]c(=O)c3ccccc23)ccc1F : ____
Output: 9.37 µM

Task: Reported IC50, compound O=C1Nc2ccccc2/C1=C1/Nc2ccccc2/C1=N\OCC1CCN(C(=O)c2cc(Cc3n[nH]c(=O)c4ccccc34)ccc2F)CC1 : ____
Output: > 60 µM

Task: Reported IC50, compound O=C(c1cc(Cc2n[nH]c(=O)c3ccccc23)ccc1F)N1CCN(C(=O)C2CC2)CC1 : ____
Output: 67.2 µM

Task: Reported IC50, compound NC(=O)c1cccc2cn(-c3ccc([C@@H]4CCCN(C(=O)CCCCCCCO/N=C5/C(=C6/C(=O)Nc7ccccc76)Nc6ccccc65)C4)cc3)nc12 : ____
Output: > 60 µM

Task: Reported IC50, compound O=C1Nc2ccccc2/C1=C1/Nc2ccccc2/C1=N\OCCCCC(=O)N1CCN(C(=O)c2ccc(Cc3n[nH]c(=O)c4ccccc34)cc2F)CC1 : ____
Output: > 60 µM

Task: Reported IC50, compound NC(=O)c1cccc2cn(-c3ccc([C@@H]4CCCN(C(=O)c5ccc(CO/N=C6/C(=C7/C(=O)Nc8ccccc87)Nc7ccccc76)cc5)C4)cc3)nc12 : ____
Output: > 60 µM

Task: Reported IC50, compound O=C1Nc2ccc(Br)cc2/C1=C1/Nc2ccc(Br)cc2/C1=N\OCCCC(=O)N1CCN(C(=O)c2cc(Cc3n[nH]c(=O)c4ccccc34)ccc2F)CC1 : ____
Output: > 60 µM
